Hello, the source for this data is patent US6825230B2, in case you need it.

Test system: chloroquine-resistant K1 strain of P. falciparum
test.summary: In vitro antimalarial semiautomated microdilution assay ([3H]-hypoxanthine incorporation), K1 strain
Assay type: cell-based, Plasmodium falciparum
stated.conditions: Plasmodium falciparum, K1, 72 h, read-out: IC50 (ng/ml) K1, chloroquine-resistant K1 strain, 72 h incubation
Field: IC50. Provide a value for each of the molecules that follow.
Please reply with the bare figure in ng/mL and do not write the unit itself.

Form field, IC50 with chloroquine-resistant K1 strain of P. falciparum, item CCCCS(=O)(=O)N1CCC2(CC1)OOC1(O2)C2CC3CC(C2)CC1C3 (centres unmarked) [OZ92] : 1.6

Recorded IC50 for Fc1ccc(OC2CCC3(CC2)OOC2(O3)C3CC4CC(C3)CC2C4)cc1 (centres unmarked) [OZ193] on chloroquine-resistant K1 strain of P. falciparum was 5.5

Simply: CS(=O)(=O)c1ccc([C@H]2CC[C@]3(CC2)OOC2(O3)C3CC4CC(C3)CC2C4)cc1 (some centres unmarked) [OZ178] , chloroquine-resistant K1 strain of P. falciparum, IC50 = 21

Reading of IC50 for O=[N+]([O-])c1cccc(C2(c3cccc([N+](=O)[O-])c3)OOC3(O2)C2CC4CC(C2)CC3C4)c1 (centres unmarked) [OZ105] with chloroquine-resistant K1 strain of P. falciparum: 5.4

Recorded IC50 for CC1(C)C2CCC1(CS(=O)(=O)N1CCC3(CC1)OOC1(O3)C3CC4CC(C3)CC1C4)C(=O)C2 (centres unmarked) [OZ91] on chloroquine-resistant K1 strain of P. falciparum was 1.4

# IC50 measured on chloroquine-resistant K1 strain of P. falciparum for item CC(C)(C)NC(=O)N1CCC2(CC1)OOC1(O2)C2CC3CC(C2)CC1C3 (centres unmarked) [OZ143] = 0.98

Record CC(C)(O)C[C@H]1CC[C@]2(CC1)OOC1(O2)C2CC3CC(C2)CC1C3 (some centres unmarked) [OZ205] ; system chloroquine-resistant K1 strain of P. falciparum; IC50 = 1.5

Item CC(=O)OC(C)(C)C(=O)N[C@H]1CC[C@]2(CC1)OOC1(O2)C2CC3CC(C2)CC1C3 (some centres unmarked) [OZ202] was tested on chloroquine-resistant K1 strain of P. falciparum; the reported IC50 is 6

* * *

System: P. berghei ANKA strain
test.summary: Prophylactic activity, single 100 mg/kg po at various times before infection
Assay type: in vivo, Plasmodium berghei
stated.conditions: po, 100 mg/kg
Procedure: Moro NMRI male mice (Fu Albino specific pathogen free) weighing 18±2 g were infected intravenously (i.v.) with 2×10^7 P. berghei ANKA strain-infected erythrocytes from donor mice on day 0 of the experiment. From donor mice with circa 30% parasitemia, heparinized blood was taken and diluted in physiological saline to 10^8 parasitized erythrocytes per ml. An aliquot (0.2 ml) of this suspension was injected i.v. into experimental and control groups of mice. […]
Answer each item with its documented Prophylactic Activity (%) 72 h.
Output spec: scalar in %, unitless text.

Measured Prophylactic Activity (%) 72 h of CC(C)(N)CNC(=O)C[C@H]1CC[C@]2(CC1)OO[C@]1(O2)C2CC3CC(C2)CC1C3 [OZ277] : 9

Form field Prophylactic Activity (%) 72 h, entry CC(C)(N)C(=O)NC[C@H]1CC[C@]2(CC1)OOC1(O2)C2CC3CC(C2)CC1C3 (some centres unmarked) [OZ281] : 8

The reported value for NC[C@H]1CC[C@]2(CC1)OOC1(O2)C2CC3CC(C2)CC1C3 (some centres unmarked) [OZ209] in terms of Prophylactic Activity (%) 72 h is 99.92

The compound NC(=O)CNC[C@H]1CC[C@]2(CC1)OOC1(O2)C2CC3CC(C2)CC1C3 (some centres unmarked) [OZ256] showed Prophylactic Activity (%) 72 h equal to 13

According to the records, this compound NCC(=O)NC[C@H]1CC[C@]2(CC1)OO[C@]1(O2)C2CC3CC(C2)CC1C3 [OZ271] displays Prophylactic Activity (%) 72 h of 99.89
